Sourced from the emibetuzumab library of Makowski et al. (2022)

B1: VH:VL chains; a variant is named by its letters at X, in order (parent)
chain 1: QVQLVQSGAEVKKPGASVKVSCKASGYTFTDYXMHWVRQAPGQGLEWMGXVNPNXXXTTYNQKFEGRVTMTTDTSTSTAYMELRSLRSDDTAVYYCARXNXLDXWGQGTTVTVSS
chain 2: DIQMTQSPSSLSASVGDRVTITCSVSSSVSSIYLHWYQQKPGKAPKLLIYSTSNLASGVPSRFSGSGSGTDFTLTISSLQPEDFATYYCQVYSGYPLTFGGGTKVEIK

Variants of: B1
test-description: yeast display scFab, FACS + sequencing
test-settings: with MET
This is one part of the list. How many sequences the whole screen found active is unknown.
quantity-kind: antigen binding call

Past entries and their recorded results:
{"columns": ["variant-annotation", "quantity-kind", "assay-result"],
 "data": [
  ["AAEKDDLA", "antigen binding call", "no binding"],
  ["VRGGGSAA", "antigen binding call", "binds"],
  ["YRRGSVGA", "antigen binding call", "binds"],
  ["DKEGGAAA", "antigen binding call", "no binding"],
  ["VGEKGDGV", "antigen binding call", "no binding"]
]}

Fill in antigen binding call for each of the 4 variants listed.
1. ATGGAAGD
2. FATKGAWV
3. DTEGGSAS
4. YRGEGSAS

1: no binding; 2: no binding; 3: no binding; 4: binds

Fill in antigen binding call for each of the 8 variants listed.
1. DAGGAAVA
2. DRGGSSAA
3. YRTRSAVV
4. YARRDVGA
5. SRRRGALD
6. AREGDDVA
7. VKRGSAAA
8. VRTEDSWS

1: no binding; 2: no binding; 3: binds; 4: no binding; 5: binds; 6: no binding; 7: binds; 8: no binding

Fill in antigen binding call for each of the 6 variants listed.
1. VKRGSAAV
2. YRKGGSWS
3. DATGGDGA
4. DAGGADGV
5. DAEATSWV
6. ATKGAAVA

1. binds
2. binds
3. no binding
4. no binding
5. no binding
6. no binding
